System: LG0567-F671-PDC multi-cell spheroid viability
Assay text: Anticancer human tumor LG0567-F671-PDC patient-derived lung adenocarcinoma cell line growth inhibition [IpAb]
Cond: second compound 0.1 µM; first compound 0.01 µM; stronger effect = lower value
Protocol: Combinatorial screen of targeted agents with ipatasertib and abemaciclib in multi-cell type tumor spheroids […] Compounds. […] If the clinical Cmax for an agent had not been determined, the highest concentration tested was 10 microM. NCI60 Cell Culture. […] The optimal seeding densities for each of the cell lines at each time point assessed were determined prior to performing the concentration response studies. […]
So basically, if viability, T/C comes in under 60% it's label 1, and if it's 60% or more it's label 0.

*Q* In the record for CC(C)n1nc(-c2ccc3oc(N)nc3c2)c2c(N)ncnc21 + CCN1CCN(Cc2ccc(Nc3ncc(F)c(-c4cc(F)c5nc(C)n(C(C)C)c5c4)n3)nc2)CC1 , is viability, T/C less than 60%?
*A* label 1

*Q* Confirm or reject: viability, T/C of COc1c(OCCCN2CCOCC2)ccc2c3n(c(=NC(=O)c4cnc(N)nc4)nc12)CCN3 + CCN1CCN(Cc2ccc(Nc3ncc(F)c(-c4cc(F)c5nc(C)n(C(C)C)c5c4)n3)nc2)CC1 lies strictly below 60%
*A* label 0

*Q* Item Cn1ncnc1[C@H]1c2n[nH]c(=O)c3cc(F)cc(c23)N[C@@H]1c1ccc(F)cc1 + CC(C)NCC(C(=O)N1CCN(c2ncnc3c2C(C)CC3O)CC1)c1ccc(Cl)cc1 : viability, T/C beneath 60%, strictly?
*A* label 0

*Q* A record lists Cn1ncnc1[C@H]1c2n[nH]c(=O)c3cc(F)cc(c23)N[C@@H]1c1ccc(F)cc1 + CCN1CCN(Cc2ccc(Nc3ncc(F)c(-c4cc(F)c5nc(C)n(C(C)C)c5c4)n3)nc2)CC1 . Is its viability, T/C below 60%?
*A* label 1

*Q* Given the entry CC(C)n1nc(-c2ccc3oc(N)nc3c2)c2c(N)ncnc21 + CC(C)NCC(C(=O)N1CCN(c2ncnc3c2C(C)CC3O)CC1)c1ccc(Cl)cc1 , would its reported viability, T/C be below 60%?
*A* label 0

*Q* Determine if COc1c(OCCCN2CCOCC2)ccc2c3n(c(=NC(=O)c4cnc(N)nc4)nc12)CCN3 + CC(C)NCC(C(=O)N1CCN(c2ncnc3c2C(C)CC3O)CC1)c1ccc(Cl)cc1 shows viability, T/C strictly lower than 60%.
*A* label 0

====

System: LG0567-F671-PDC multi-cell spheroid viability
Assay text: Anticancer human tumor LG0567-F671-PDC cell line growth inhibition [IpAb];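 also: viability read after 7 days of drug exposure; 100% = DMSO vehicle control luminescence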
Cond: second compound 1 µM; first compound 1 µM; stronger effect = lower value
Record form. Attribute: viability, T/C. Fill in for each entry.
The answer is to be given in %; state only the numeric part.

The recorded viability, T/C for entry Cc1nc(NC(=O)N2CCCC2C(N)=O)sc1-c1ccnc(C(C)(C)C(F)(F)F)c1 (stereo not given) + CCN1CCN(Cc2ccc(Nc3ncc(F)c(-c4cc(F)c5nc(C)n(C(C)C)c5c4)n3)nc2)CC1 equals 40.5

// viability, T/C value for Cn1ncc(Cl)c1-c1cc(C(=O)NC(CN)Cc2cccc(F)c2)sc1Cl (stereo not given) + CCN1CCN(Cc2ccc(Nc3ncc(F)c(-c4cc(F)c5nc(C)n(C(C)C)c5c4)n3)nc2)CC1 : 37.4

# molecule Cn1nccc1Nc1nccc(-c2ccn(C(CO)c3ccc(Cl)c(F)c3)c(=O)c2)n1 (stereo not given) + CCN1CCN(Cc2ccc(Nc3ncc(F)c(-c4cc(F)c5nc(C)n(C(C)C)c5c4)n3)nc2)CC1 ; its viability, T/C = 29.3

Input CC1(C)CCC(CN2CCN(c3ccc(C(=O)NS(=O)(=O)c4ccc(NCC5CCOCC5)c([N+](=O)[O-])c4)c(Oc4cnc5[nH]ccc5c4)c3)CC2)=C(c2ccc(Cl)cc2)C1 + CCN1CCN(Cc2ccc(Nc3ncc(F)c(-c4cc(F)c5nc(C)n(C(C)C)c5c4)n3)nc2)CC1 . Output viability, T/C: 68.8

Reported viability, T/C for C=CCn1c(=O)c2cnc(Nc3ccc(N4CCN(C)CC4)cc3)nc2n1-c1cccc(C(C)(C)O)n1 + CC(C)NCC(C(=O)N1CCN(c2ncnc3c2C(C)CC3O)CC1)c1ccc(Cl)cc1 was 37.8

Sourced from PubChem BioAssay AID2060332
